B1: scFv; the commonest letter at each place (parent)
chain 1: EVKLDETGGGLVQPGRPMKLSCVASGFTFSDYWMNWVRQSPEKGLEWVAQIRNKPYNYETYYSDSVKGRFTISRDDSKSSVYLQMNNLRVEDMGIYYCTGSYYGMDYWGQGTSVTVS
chain 2: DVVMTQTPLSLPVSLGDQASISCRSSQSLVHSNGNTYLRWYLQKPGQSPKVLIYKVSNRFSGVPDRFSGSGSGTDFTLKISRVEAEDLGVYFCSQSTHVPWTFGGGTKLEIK

Variants of: B1
assayRemarks: yeast surface expression (ratio to wild type); higher = more expressed
settings: format: scFv 4-4-20, heavy + light
We'd kindly ask you to apply these yeast surface expression classes: lower level: < 0.4; middle level: ≥ 0.4 and < 0.7; upper level: ≥ 0.7

mutationid="chain 1 G100Y G104C" categorylabel="lower level"
mutationid="chain 1 F29V V37G" categorylabel="middle level"
mutationid="chain 1 Y32C M34F" categorylabel="upper level"
mutationid="chain 1 Y32W W33Q" categorylabel="upper level"
mutationid="chain 1 Y102G D106Y" categorylabel="middle level"
mutationid="chain 1 T28K S30I" categorylabel="upper level"
mutationid="chain 1 G100D G109T" categorylabel="lower level"
mutationid="chain 1 Y102L G104C" categorylabel="lower level"
mutationid="chain 1 S101Y G104H" categorylabel="lower level"
mutationid="chain 1 F29A" categorylabel="upper level"
mutationid="chain 1 M105V Y107H" categorylabel="upper level"
mutationid="chain 1 S30C W33I" categorylabel="upper level"
mutationid="chain 1 G100W G109S" categorylabel="middle level"
mutationid="chain 1 G100S G104W" categorylabel="middle level"
mutationid="chain 1 G104S W108E" categorylabel="lower level"
mutationid="chain 1 W33E M34L" categorylabel="upper level"
mutationid="chain 1 Y32S N35E V37Q" categorylabel="middle level"
mutationid="chain 1 M105T G109V" categorylabel="lower level"
mutationid="chain 1 T28E S30W Y32D" categorylabel="middle level"

Where do these numbers come from? They come from the FLAb antibody collection (doi:10.7554/elife.23156).
